Target: NMDA receptors (NR1/NR2A) (Homo sapiens, UniProt Q05586+Q12879)
Sequence (Q12879 23-1464, other chains not shown): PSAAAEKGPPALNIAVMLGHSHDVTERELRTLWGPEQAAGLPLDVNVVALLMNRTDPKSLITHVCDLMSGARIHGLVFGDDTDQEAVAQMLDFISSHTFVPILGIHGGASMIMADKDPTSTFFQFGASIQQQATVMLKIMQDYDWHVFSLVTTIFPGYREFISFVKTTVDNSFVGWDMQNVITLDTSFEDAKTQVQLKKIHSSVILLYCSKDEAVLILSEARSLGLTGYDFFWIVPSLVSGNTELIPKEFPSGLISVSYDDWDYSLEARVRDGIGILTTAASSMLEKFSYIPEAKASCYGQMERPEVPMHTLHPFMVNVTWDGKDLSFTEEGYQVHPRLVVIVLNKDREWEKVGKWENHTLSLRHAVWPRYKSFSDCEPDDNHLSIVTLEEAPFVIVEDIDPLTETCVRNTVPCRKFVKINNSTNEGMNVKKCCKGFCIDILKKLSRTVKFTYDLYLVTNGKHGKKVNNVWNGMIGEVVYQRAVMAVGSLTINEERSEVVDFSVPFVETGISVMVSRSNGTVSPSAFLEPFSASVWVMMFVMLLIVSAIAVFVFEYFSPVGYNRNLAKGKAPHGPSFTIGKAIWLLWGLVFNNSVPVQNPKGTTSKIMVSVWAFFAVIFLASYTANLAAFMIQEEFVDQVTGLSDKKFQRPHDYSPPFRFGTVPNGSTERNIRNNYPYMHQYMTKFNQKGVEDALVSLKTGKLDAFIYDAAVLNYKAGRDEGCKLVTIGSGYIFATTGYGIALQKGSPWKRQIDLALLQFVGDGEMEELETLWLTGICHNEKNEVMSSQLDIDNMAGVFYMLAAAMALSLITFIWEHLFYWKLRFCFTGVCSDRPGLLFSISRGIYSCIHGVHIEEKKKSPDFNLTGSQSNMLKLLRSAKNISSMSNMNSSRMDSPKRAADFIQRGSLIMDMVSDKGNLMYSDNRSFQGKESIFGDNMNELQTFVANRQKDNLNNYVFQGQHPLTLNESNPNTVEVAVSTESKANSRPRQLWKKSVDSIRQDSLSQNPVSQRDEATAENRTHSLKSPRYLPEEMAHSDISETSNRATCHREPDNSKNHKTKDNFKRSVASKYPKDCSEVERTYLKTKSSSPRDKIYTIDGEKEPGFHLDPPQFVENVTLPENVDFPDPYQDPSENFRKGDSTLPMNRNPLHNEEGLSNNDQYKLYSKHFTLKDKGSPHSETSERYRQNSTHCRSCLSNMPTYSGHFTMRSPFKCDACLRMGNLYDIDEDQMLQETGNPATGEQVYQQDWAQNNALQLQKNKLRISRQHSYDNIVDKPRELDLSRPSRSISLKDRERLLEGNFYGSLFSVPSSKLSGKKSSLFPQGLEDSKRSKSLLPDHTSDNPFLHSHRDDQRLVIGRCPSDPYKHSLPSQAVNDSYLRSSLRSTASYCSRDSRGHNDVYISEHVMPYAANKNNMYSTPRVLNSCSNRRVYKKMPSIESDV
Test: Two-electrode voltage-clamp block of recombinant NMDA receptors expressed in Xenopus oocytes
Conditions: Hill equation fit, n=6; read-out: IC50, wild-type NMDA receptors (NR1/NR2A)
test_readout: IC50 (nM)
Report the value in nM with no unit label.

Please fill in: IC50 reported for CCC(C)C(N)CN(Cc1ccccc1)C(CNCc1ccccc1)Cc1ccc(O)cc1 (stereo not shown) [NBTA] = 80

FYI, the data here is from patent US7022882B2.
